molecular target: His-TEV-DYRK1A Kinase domain (aa127-485) (Homo sapiens); construct: His-TEV-DYRK1A Kinase domain (aa127-485); His (N); TEV cleavage site (N); test: Kinase ADP assay (ADP Hunter Plus); assay type: biochemical
MEASURE: IC50 (µM)

// solved cases for IC50 follow
CCOc1ccc(-c2nc(C)nc3[nH]cc(-c4ccnc(N)c4)c23)cc1    0.037
Cc1nc(CN2CCCC(F)(F)C2)c2c(-c3ccnc(N)c3)c[nH]c2n1    0.532

a = Cc1nc(N2CCCC2C(F)(F)F)c2c(-c3ccnc(N)c3)c[nH]c2n1 (centres unmarked)
b = C#Cc1nc(N2CCc3ccccc3C2)c2c(-c3ccnc(N)n3)c[nH]c2n1
c = Cc1nc(-c2ccc3c(c2)OCCO3)c2c(-c3ccnc(N)c3)c[nH]c2n1
Arrange the 3 entries by IC50 so the values rise. Answer by listing the labels in the requested order.
c, b, a
